Assay: Plasma kinetics of TMC278 in beagle dogs after single intramuscular administration
Type: in vivo
Settings: male, beagle, dog, plasma, intramuscular, 2.5 mg/kg, mean (n=2); 48 h after dose; single IM 2.5 mg/kg, aqueous 30% DMA/50% PEG400 solution
measure: concentration at 48 h (ng/mL)
Unit ng/mL implied. Number only.

concentration at 48 h measured on "Cc1cc(C=CC#N)cc(C)c1Nc1ccnc(Nc2ccc(C#N)cc2)n1" = 7.53

* * *

Assay: Plasma kinetics of TMC278 in beagle dogs after single intramuscular administration
Type: in vivo
Conditions: male, beagle, dog, plasma, im, 2.5 mg/kg, dog No. 16854; single IM 2.5 mg/kg, aqueous 30% DMA/50% PEG400 solution; read-out: t1/2, 24-72 h (converted)
measure: half-life (h)
Unit h implied. Number only.

half-life measured on "Cc1cc(C=CC#N)cc(C)c1Nc1ccnc(Nc2ccc(C#N)cc2)n1" = 75.2
